Reference source: PubChem BioAssay (NCI)

# Test system: SN12C renal
# ASSAY_PROCEDURE: NCI tumour cell line growth inhibition, 48 h
EXPERIMENTAL_ENDPOINT: TGI

The following compounds have reported results that may help.
- COMPOUND: "COc1cc2c(/C=C3/C(=O)Nc4ccccc43)c(Cl)[nH]c2cc1C"
  DATA_VALUE: "13.1 µM"
- COMPOUND: "c1ccc(/C(=N/Nc2ccccn2)c2ncccn2)cc1"
  DATA_VALUE: "> 100 µM"
- COMPOUND: "O=C1C=C(c2ccccc2)O/C1=C/C(=O)c1ccc(Cl)cc1"
  DATA_VALUE: "29.9 µM"

Provide TGI for all items below, preserving their order.
1. CCOC(=O)/C(C#N)=N\Nc1ccc(-n2c(C)nc3ccccc3c2=O)cc1
2. OCC(O)CC[CH2][Sn]([Br])([c]1ccccc1)[c]1ccccc1 (stereo unspecified)
3. FC(F)(F)c1cccc(Nc2nccc(-c3cnn4nc(-c5ccccc5)ccc34)n2)c1

1: > 100 µM; 2: > 100 µM; 3: > 25 µM

* * *

# System: ACHN renal
# ASSAY_PROCEDURE: NCI tumour cell line growth inhibition, 48 h
EXPERIMENTAL_ENDPOINT: TGI

- COMPOUND: "CC(=O)OCCN1c2ccccc2Sc2cnccc21"
  TGI: "> 10 µM"
- COMPOUND: "COc1c(Br)cc(CC(N)=O)c(O)c1Br"
  TGI: "> 100 µM"

# get_value(readout='TGI', item= CSC(C1c2ccccc2N(c2ccc(C)cc2)C2=NC(=O)N(C)C(=O)C21Cl)S(=O)(=O)c1ccc(C)cc1 (stereo not drawn) )
> 100 µM

* * *

# Test system: NCI-H460 lung
# ASSAY_PROCEDURE: NCI tumour cell line growth inhibition, 48 h
EXPERIMENTAL_ENDPOINT: TGI

Sample records with TGI:
- COMPOUND: "Cc1cc2[nH]c3c(C#N)c4c(c(=O)n3c2cc1C)CCCC4"
  TGI: "> 100 µM"
- COMPOUND: "CC(=O)OCC(OC(C)=O)C1C[C@H]2O[C@@H]3[C@H](C[C@H]2O1)O[C@@]1(C[C@@H]3C)C[C@H](C)[C@@H]2O[C@]3(C[C@@H]2O1)C[C@H]1O[C@H]2[C@H](C)[C@H]4OC(=O)CC5CC[C@H]6OC7[C@H]8O[C@]9(CC[C@H]%10CC(O)(CO)[C@H](CC[C@H]%11C[C@@H](C)C(O)(CO)C(C[C@@H]4O[C@H]2C[C@H]1O3)O%11)O%10)CC8O[C@@H]7[C@@H](O9)[C@H]6O5 (some centres undefined)"
  TGI: "> 1 µM"
- COMPOUND: "CCOC(=O)/C(C#N)=N\\Nc1ccc(-n2c(C)nc3ccccc3c2=O)cc1"
  TGI: "> 100 µM"

# TGI lookup, item CC[C@@H]1CN(C)[C@H]2Cc3c([nH]c4ccccc34)C(=O)C[C@H]1C2C(=O)OC (some centres undefined)
> 100 µM

* * *

I'd be grateful if you could share measured TGI for these entries.
# Tested on: M14 melanoma
# ASSAY_PROCEDURE: NCI tumour cell line growth inhibition, 48 h

Answered examples (10):
- COMPOUND: "O=[N+]([O-])c1ccc(-c2ccc(-c3csc(Nc4ccccn4)n3)o2)cc1"
  TARGET_OR_SYSTEM: "M14 melanoma"
  DATA_VALUE: "> 100 µM"
- COMPOUND: "COC1/C=C\\C=C(/C)C(=O)NC2=CC(=O)C(=O)C(=C2O)CC(C)CC(OC)C(O)C(C)/C=C(\\C)C1OC(N)=O (stereo unspecified)"
  TARGET_OR_SYSTEM: "M14 melanoma"
  DATA_VALUE: "> 53.2 µM"
- COMPOUND: "O=C(N/N=C/c1cc(Br)cc(Br)c1[O-])c1ccccc1O.O=C(N/N=C/c1cc(Br)cc(Br)c1[O-])c1ccccc1O.[Fe+2]"
  TARGET_OR_SYSTEM: "M14 melanoma"
  DATA_VALUE: "14.5 µM"
- COMPOUND: "c1ccc2c3c(c(N4CCOCC4)nc2c1)CCCC3"
  TARGET_OR_SYSTEM: "M14 melanoma"
  DATA_VALUE: "> 100 µM"
- COMPOUND: "NC(CCC(=O)NC(CSSCCCCS(=O)O)C(=O)NCC(=O)O)C(=O)O (stereo unspecified)"
  TARGET_OR_SYSTEM: "M14 melanoma"
  DATA_VALUE: "> 100 µM"
- COMPOUND: "C=CCOCCCCC(C(C)=O)C(=O)OC (stereo unspecified)"
  TARGET_OR_SYSTEM: "M14 melanoma"
  DATA_VALUE: "> 100 µM"
- COMPOUND: "COC(=O)C1=Nc2c(C)nn(-c3ccccc3)c2N=C(c2ccc([N+](=O)[O-])cc2)C1"
  TARGET_OR_SYSTEM: "M14 melanoma"
  DATA_VALUE: "> 10 µM"
- COMPOUND: "COC(=O)C1Cc2c(n(Cc3ccccc3)c3ccccc23)C(CCC(=O)O)N1C(C)C (stereo unspecified)"
  TARGET_OR_SYSTEM: "M14 melanoma"
  DATA_VALUE: "> 100 µM"
- COMPOUND: "Nc1cc(N)c2nc(-c3ccccc3)c(Nc3ccc(Cl)c(Cl)c3)nc2c1"
  TARGET_OR_SYSTEM: "M14 melanoma"
  DATA_VALUE: "60 µM"
- COMPOUND: "COc1ccc(-c2cc(=O)c3ccc(O)cc3o2)cc1OC"
  TARGET_OR_SYSTEM: "M14 melanoma"
  DATA_VALUE: "> 100 µM"

For each of the items listed, what is its TGI?
1. O=c1c2ccccc2nc(Nc2cccc(Cl)c2)n1/N=C/C=C/c1ccccc1
2. Brc1cccc(N=NN2CCCC2)c1
3. O=C1Nc2c(C(F)(F)F)cccc2[C@]1(c1ccc(O)cc1)c1ccc(OC(F)(F)F)cc1
4. CSc1nc2c(c(=O)n1C)N=C(c1ccccc1)[C@H](C(CC(=O)c1ccccc1)c1ccccc1)C(c1ccccc1)N2 (stereo partly specified)
5. O=c1[nH]ncc(Br)c1Br
6. CCC(=O)Oc1c2ccsc2c(OC(=O)CC)c2ccsc12
7. CCC(C(=O)c1ccc(OC)c(OC)c1)N(C(=O)C(F)(F)F)C(C)c1ccccc1 (stereo unspecified)
8. CC/C(=C(/c1ccc(O)cc1)c1ccc(OCCNC)cc1)c1ccccc1

["> 100 µM", "> 100 µM", "29.2 µM", "> 100 µM", "4.23 µM", "0.305 µM", "> 100 µM", "3.31 µM"]

* * *

# Test system: HOP-62 NSCLC
# ASSAY_PROCEDURE: NCI tumour cell line growth inhibition, 48 h; in the data active = GI50 below about 0.43 µM; inactive = the rest
Permitted responses: active, inactive

Check out these entries, answers already filled in.
- COMPOUND: "COc1cc([N+](=O)[O-])cc2c3c(n(C)c12)[C@@]1(C)CCC2c4ccc(OCc5ccccc5)cc4CCC2C1C3 (stereo not given in full)"
  LABEL_VALUE: "inactive"
- COMPOUND: "Cn1c2ccccc2c2c(-c3ccccc3)[n+]3ccncc3nc21"
  LABEL_VALUE: "inactive"
- COMPOUND: "CC1(C)OC2[C@@H](CNC(=O)NC(=O)NC(=O)CI)O[C@@H](n3cnc4c(NC(=O)Nc5ccccc5)ncnc43)[C@H]2O1 (stereo not given in full)"
  LABEL_VALUE: "inactive"
- COMPOUND: "NC(=O)c1ccc(I)c(N)c1"
  LABEL_VALUE: "inactive"

Turning to the following compound.
Which outcome was entered for the compound `CC[C@]1(O)C[C@@H]2CN(CCc3c([nH]c4ccccc34)[C@@](C(=O)OC)(c3cc4c(cc3OC)N(C)[C@H]3[C@@](O)(C(=O)OC)[C@H](OC(C)=O)[C@]5(CC)C=CCN6CC[C@]43[C@@H]65)C2)C1` in this test?
active

* * *

# Test system: NCI-H23 lung
# ASSAY_PROCEDURE: NCI tumour cell line growth inhibition, 48 h
EXPERIMENTAL_ENDPOINT: TGI

Known TGI results, listed for orientation:
- SMILES_STRUCTURE: "COc1cc(C2=C(c3ccccc3)COC2=O)cc(OC)c1OC"
  EXPERIMENTAL_ENDPOINT: "TGI"
  DATA_VALUE: "> 27.7 µM"
- SMILES_STRUCTURE: "O=C(CSc1n[nH]c(=O)[nH]c1=O)NNC(=O)c1cccc2nc3ccccc3nc12"
  EXPERIMENTAL_ENDPOINT: "TGI"
  DATA_VALUE: "> 100 µM"
- SMILES_STRUCTURE: "COc1ccc(-c2cc(=O)c3ccc(O)cc3o2)cc1OC"
  EXPERIMENTAL_ENDPOINT: "TGI"
  DATA_VALUE: "> 100 µM"

// moving on: another record for TGI
So what does the record say about TGI for `O=C(CC1=NCCN1)c1ccccc1` ?
> 750 µM
